Overview of reported GI50 across a group of compounds:
test system: HT-29; test: NCI tumour cell line growth inhibition, 48 h
Activity calls are given as the source filed them. Cut-off read from the data, not from the text of the source: active = GI50 up to about 1.1 µM and inactive = higher.

Compound: O=C(/C=C/c1ccccc1Cl)c1cccc2ccccc12
Assayed Target: HT-29
GI50: 10.4 µM (inactive)
//
Compound: Cc1nc(-c2cc3cc(Cl)ccc3oc2=O)cc2c1c(=O)oc1ccc(Cl)cc12
Assayed Target: HT-29
GI50: > 100 µM (inactive)
//
Compound: CCN(CC)CCCCC1CCN(CC(=O)N2c3ccccc3NC(=O)CC2C)CC1 (stereo not given)
Assayed Target: HT-29
GI50: > 100 µM (inactive)
//
Compound: CSC(=S)NN=C1CCCCC1
Assayed Target: HT-29
GI50: 47.6 µM (inactive)
//
Compound: O=C(/C=C\c1ccsc1)c1ccccc1
Assayed Target: HT-29
GI50: 4.06 µM (inactive)
//
Compound: COc1cccc(Nc2nc3c([nH]2)c(=O)n(C)c(=O)n3C)c1
Assayed Target: HT-29
GI50: > 10 µM (inactive)
//
Compound: Cc1ccc([N+](=O)[O-])cc1/N=N/C(=O)NNc1cc([N+](=O)[O-])ccc1C
Assayed Target: HT-29
GI50: 21.9 µM (inactive)
//
Compound: CC1CC[C@@]2(OC1)OC1C[C@H]3[C@@H]4CCC5CC(O)CC[C@]5(C)[C@H]4C/C(=N\N(C)C)[C@]3(C)C1[C@@H]2C (stereo not given in full)
Assayed Target: HT-29
GI50: 19.6 µM (inactive)
//
Compound: O=C1/C(=C/c2ccccc2Cl)COc2ccc(Br)cc21
Assayed Target: HT-29
GI50: > 100 µM (inactive)
//
Compound: CN(C)/C=C/c1ccncc1
Assayed Target: HT-29
GI50: > 100 µM (inactive)
//
Compound: c1cncc(CNCc2cccnc2)c1
Assayed Target: HT-29
GI50: > 100 µM (inactive)
//
Compound: CC(=O)n1cc(OP(=O)(Oc2ccccc2)Oc2ccccc2)c2ccccc21
Assayed Target: HT-29
GI50: 36 µM (inactive)
//
Compound: CN(COC(=O)c1ccccc1)c1nc(N(C)COC(=O)c2ccccc2)nc(N(C)COC(=O)c2ccccc2)n1
Assayed Target: HT-29
GI50: > 100 µM (inactive)
//
Compound: CC(C)(Oc1ccc(C(=O)c2ccc(Cl)cc2)cc1Cl)C(=O)N1CCN(CCO)CC1
Assayed Target: HT-29
GI50: > 10 µM (inactive)
//
Compound: O=c1c2c(-c3ccccc3)onc2n(-c2ccccc2)c(=O)n1-c1ccccc1
Assayed Target: HT-29
GI50: 21 µM (inactive)
//
Compound: COc1ccc(NC(=O)C2=C(SC)C(C#N)C(=O)N=C2N)cc1 (stereo not given)
Assayed Target: HT-29
GI50: > 100 µM (inactive)
//
Compound: COc1ccc(NC(=O)/C(Cc2nc3ccccc3nc2O)=N\O)c(OC)c1
Assayed Target: HT-29
GI50: > 100 µM (inactive)
//
Compound: COc1ccc([C@@H]2CC(=O)NCCCCNCCCN2)cc1
Assayed Target: HT-29
GI50: > 100 µM (inactive)
//
Compound: O=C(O)\C=C/C=C/C=C/C=C/C(=O)O
Assayed Target: HT-29
GI50: > 100 µM (inactive)
//
Compound: COc1ccc(/C=C2\CN(C)CC3=C2OC(N)=C(C#N)C3c2ccc(OC)cc2)cc1 (stereo not given)
Assayed Target: HT-29
GI50: > 56.8 µM (inactive)
//
Compound: CCN(CC)CCN(C(=O)C(C)(C)C)c1ccccc1N
Assayed Target: HT-29
GI50: > 100 µM (inactive)
//
Compound: COc1ccc(NC(=O)CC(=O)N2N=C(N3CCCCC3)CC2c2ccccc2)cc1 (stereo not given)
Assayed Target: HT-29
GI50: > 100 µM (inactive)
//
Compound: CC1=NN(C(=O)CC(=O)NC(=O)CC(=O)Nc2ccccc2F)C(=O)C1/N=N/c1ccc([N+](=O)[O-])cc1 (stereo not given)
Assayed Target: HT-29
GI50: 19.8 µM (inactive)
//
Compound: CC(=O)N(C(C)=O)C1=C2c3ccccc3N(S(=O)(=O)c3ccccc3)C2n2c(=O)n(-c3ccccc3)c(=O)n2C1 (stereo not given)
Assayed Target: HT-29
GI50: 59 µM (inactive)
//
Compound: O=C1Sc2cc3ccccc3cc2C(=O)Sc2ccc(Br)cc21
Assayed Target: HT-29
GI50: 3.41 µM (inactive)
//
Compound: O=C(CC(C(=O)c1ccsc1)c1cccs1)c1ccsc1 (stereo not given)
Assayed Target: HT-29
GI50: 63.1 µM (inactive)
//
Compound: Fc1c(F)c(F)c(CSc2nc3ccccc3[nH]2)c(F)c1F
Assayed Target: HT-29
GI50: > 100 µM (inactive)
//
Compound: OC1COC(n2c3ccc(Br)cc3c3ccc4c5ccccc5[nH]c4c32)C(O)C1O (stereo not given)
Assayed Target: HT-29
GI50: 3.15 µM (inactive)
//
Compound: Oc1ccccc1-c1cnnc(-c2ccccc2O)c1
Assayed Target: HT-29
GI50: 26.5 µM (inactive)
//
Compound: CC12CC(=O)Nc3ccccc3N1C(c1ccccc1)=NO2 (stereo not given)
Assayed Target: HT-29
GI50: > 100 µM (inactive)

* * *

tested on: SF-539; experiment: NCI tumour cell line growth inhibition, 48 h
Calls of active or inactive are those of the source. Cut-off read from the data, not from the text of the source: active = GI50 up to about 1.1 µM and inactive = higher.

Molecule: Cc1ccc(C)c(N2C(=O)C(=O)C(c3nc4ccccc4s3)/C(=N/NC(=O)NN)C2=O)c1 (stereo not given)
GI50: > 100 µM (inactive)

Molecule: O=C(Nc1c(O)[nH]c(=S)[nH]c1=O)c1ccccc1F
GI50: > 100 µM (inactive)

Molecule: CC12CC(=O)Nc3ccccc3N1C(c1ccccc1)=NO2 (stereo not given)
GI50: > 100 µM (inactive)

Molecule: Cc1ccc(NC(c2ccccc2)P(=O)(c2ccccc2)c2ccccc2)cc1 (stereo not given)
GI50: > 100 µM (inactive)

Molecule: O=C1OCCC[C@H]2O[C@@H](COCc3ccccc3)C[C@@H]12
GI50: > 100 µM (inactive)

* * *

Overview of reported GI50 across a group of compounds:
tested on: MCF7; test: NCI tumour cell line growth inhibition, 48 h
Active and inactive are the calls of the source. Rule as the data show it: active = GI50 up to about 1.1 µM and inactive = higher.
Endpoint Name: GI50

Compound: N#CC(C#N)=CNC(=S)c1ccncc1
Assayed Target: MCF7
Recorded Value: 76.9 µM (inactive)
//
Compound: Cc1nc(-c2cc3cc(Cl)ccc3oc2=O)cc2c1c(=O)oc1ccc(Cl)cc12
Assayed Target: MCF7
Recorded Value: > 100 µM (inactive)
//
Compound: Cc1ccsc1C(=O)C(CC(=O)c1cccs1)c1ccsc1 (stereo not drawn)
Assayed Target: MCF7
Recorded Value: 76.2 µM (inactive)

* * *

system: Hs-578T; assay: NCI tumour cell line growth inhibition, 48 h
Calls of active or inactive are those of the source. Rule as the data show it: active = GI50 up to about 1.1 µM and inactive = higher.
Endpoint Name: GI50

Compound: COc1ccc([C@H]2C=[N+]([O-])O[C@H](OC3CCCC3)[C@@H]2OC(C)=O)cc1OC
Recorded Value: 29.9 µM (inactive)
//
Compound: C=CCNC1=C2C[C@@H](C)C[C@H](OC)[C@H](O)[C@@H](C)/C=C(\C)[C@H](OC(N)=O)[C@@H](OC)/C=C\C=C(/C)C(=O)NC(=CC1=O)C2=O
Recorded Value: 0.575 µM (active)
//
Compound: Cc1ccc(/N=N/C(=N/NC(=O)c2ccccc2)c2ccc(N(CCC#N)CCC#N)cc2C)cc1
Recorded Value: 13 µM (inactive)
//
Compound: c1cncc(CNCc2cccnc2)c1
Recorded Value: > 100 µM (inactive)
//
Compound: Cc1ccc([N+](=O)[O-])cc1S(=O)(=O)Nc1ccc(C2=NNC(c3cccs3)C2)cc1 (stereo not given)
Recorded Value: 58.2 µM (inactive)
//
Compound: CNC(=S)NNc1ncnc2c1c(-c1ccc(Cl)cc1)cn2-c1ccc(C)cc1
Recorded Value: 20.9 µM (inactive)
//
Compound: CCOC(=O)c1c(C)n(CCN2CCN(C)CC2)c2ccc(OC)cc12
Recorded Value: 55.5 µM (inactive)
//
Compound: c1n[nH]cc1C12C3C4C5C3C1C5C42 (stereo not given)
Recorded Value: > 100 µM (inactive)
//
Compound: O=C1CCC2(c3ccccc3)Nc3ccncc3N12 (stereo not given)
Recorded Value: > 10 µM (inactive)
//
Compound: CN(C)CC1CCC/C(=C\c2ccc(OC(=O)/C=C/c3ccccc3)cc2)C1=O (stereo not given)
Recorded Value: 3.28 µM (inactive)

* * *

system: KM12; assay: NCI tumour cell line growth inhibition, 48 h
Active and inactive are the calls of the source. Cut-off read from the data, not from the text of the source: active = GI50 up to about 1.1 µM and inactive = higher.
Labels: TRUE for active, FALSE for inactive

Molecule: O=c1[nH]c2c(c(=O)[nH]1)SSC2
Class: FALSE
//
Molecule: COC(=O)c1cccc(C(=O)OC)c1
Class: FALSE
//
Molecule: C=CCCC1CCCCNC1=S (configuration not stated)
Class: FALSE
//
Molecule: O=C(/C=C\c1ccsc1)c1ccccc1
Class: FALSE
//
Molecule: COc1cc2c(cc1OC)C(OC)N(C)c1c-2ccc2cc3c(cc12)OCO3 (configuration not stated)
Class: TRUE
//
Molecule: CN(C)CCSc1nccc(-c2ccc(-c3ccnc(SCCN(C)C)n3)s2)n1
Class: FALSE
//
Molecule: COC(=O)c1cc(-c2c[nH]cc2C(=O)OCc2ccccc2)cn1S(=O)(=O)c1ccc(C)cc1
Class: FALSE
//
Molecule: CO/C=C/C=C(\C#N)C(=O)OC
Class: FALSE
//
Molecule: CCOC(=O)c1c(NC(=O)c2ccccc2)sc2c1CCCC2
Class: FALSE
//
Molecule: O=C1CSC(c2cccc([N+](=O)[O-])c2)N1c1ccc(-c2ccc(-n3c(-c4ccccc4)nc4ccccc4c3=O)cc2)cc1 (configuration not stated)
Class: FALSE
//
Molecule: CC1=C(C(N)=O)C(c2ccncc2)C(C#N)C(=O)N1 (configuration not stated)
Class: FALSE
//
Molecule: Nc1cc2nc(O)c(O)nc2cc1N
Class: FALSE
